Attribution: ChEMBL document CHEMBL1926574

# maps each entry to its Antagonist potency
# SYSTEM: Adenosine receptor A3 (Homo sapiens) (UniProt P0DMS8)
# Sequence (whole entry): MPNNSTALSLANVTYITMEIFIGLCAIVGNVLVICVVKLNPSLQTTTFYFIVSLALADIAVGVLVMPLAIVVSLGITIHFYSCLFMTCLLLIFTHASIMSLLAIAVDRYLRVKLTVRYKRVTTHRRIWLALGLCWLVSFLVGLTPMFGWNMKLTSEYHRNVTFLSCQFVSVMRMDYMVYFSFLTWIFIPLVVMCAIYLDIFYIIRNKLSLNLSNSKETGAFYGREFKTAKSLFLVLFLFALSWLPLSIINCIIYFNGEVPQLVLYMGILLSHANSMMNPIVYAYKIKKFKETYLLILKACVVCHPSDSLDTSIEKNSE
# ASSAY SUMMARY: Antagonist activity at human adenosine A3 receptor
# Assay type: functional
Field: numeric (nM). Do not append units.

{"MOL": "CSc1nc(NC(=O)C(c2ccccc2)c2ccccc2)n2nc(-c3ccco3)nc2n1", "Antagonist potency / nM": 170}

Looking up "Nc1nc(Oc2ccccc2)nc2nc(-c3ccco3)nn12" , I see its Antagonist potency listed as 489

Data point: "Cn1cc2c(nc(NC(=O)Cc3ccccc3)n3nc(-c4ccccc4)nc23)n1" ; Antagonist potency = 0.108
